Field: HUVEC proliferation, % inhibition. Provide a value for each of the binders that follow.
- experimental_system: VEGF
- Sequence (P15692 whole entry): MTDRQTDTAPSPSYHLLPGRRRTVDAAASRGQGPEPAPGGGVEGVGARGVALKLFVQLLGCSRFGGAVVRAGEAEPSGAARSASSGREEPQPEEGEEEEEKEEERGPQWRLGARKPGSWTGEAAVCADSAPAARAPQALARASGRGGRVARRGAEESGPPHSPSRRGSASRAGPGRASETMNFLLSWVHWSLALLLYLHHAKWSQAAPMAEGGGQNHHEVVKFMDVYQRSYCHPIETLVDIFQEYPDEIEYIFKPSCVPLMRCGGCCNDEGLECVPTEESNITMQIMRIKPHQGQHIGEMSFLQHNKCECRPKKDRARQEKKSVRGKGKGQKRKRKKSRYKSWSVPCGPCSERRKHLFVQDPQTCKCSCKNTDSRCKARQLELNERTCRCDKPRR
- assay_procedure: cell-based or functional assay
Give bare numbers, in %.

>  <binder>
VEGFBII010 (VHH, not shown: small tags and cut ends) EVQLVESGGGLVQTGDSLRLSCEVSGRTFSSYSMGWFRQAQGKEREFVVAISKGGYKYDSVSLEGRFTISKDNAKNTVYLQINSLKPEDTAVYYCASSRAYGSSRLRLADTYEYWGQGTQVTVSSGGGGSGGGGSGGGGSGGGGSGGGGSGGGGSGGGGSEVQLVESGGGLVQTGDSLRLSCEVSGRTFSSYSMGWFRQAQGKEREFVVAISKGGYKYDSVSLEGRFTISKDNAKNTVYLQINSLKPEDTAVYYCASSRAYGSSRLRLADTYEYWGQGTQVTVSS

>  <HUVEC proliferation, % inhibition (%)>
95

$$$$
>  <binder>
VEGFBII024 (VHH, not shown: small tags and cut ends) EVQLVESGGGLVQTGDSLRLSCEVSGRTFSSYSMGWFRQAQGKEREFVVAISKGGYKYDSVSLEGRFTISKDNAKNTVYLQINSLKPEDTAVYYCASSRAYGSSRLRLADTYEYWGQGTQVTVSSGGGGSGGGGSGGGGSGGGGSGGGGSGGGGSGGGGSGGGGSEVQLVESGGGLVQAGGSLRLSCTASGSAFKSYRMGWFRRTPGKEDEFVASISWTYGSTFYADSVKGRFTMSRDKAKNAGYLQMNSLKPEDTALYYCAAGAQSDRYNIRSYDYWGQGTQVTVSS

>  <HUVEC proliferation, % inhibition (%)>
96

$$$$
>  <binder>
VEGFBII023 (VHH, not shown: small tags and cut ends) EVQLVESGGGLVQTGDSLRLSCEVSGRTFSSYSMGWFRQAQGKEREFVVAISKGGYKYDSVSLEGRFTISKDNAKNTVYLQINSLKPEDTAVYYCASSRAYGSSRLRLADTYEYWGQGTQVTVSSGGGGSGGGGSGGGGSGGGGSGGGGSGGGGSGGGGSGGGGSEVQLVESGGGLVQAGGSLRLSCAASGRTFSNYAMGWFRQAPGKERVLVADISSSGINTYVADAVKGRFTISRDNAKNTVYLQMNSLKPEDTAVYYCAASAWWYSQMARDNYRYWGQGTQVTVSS

>  <HUVEC proliferation, % inhibition (%)>
98

$$$$

From here, focus on the item given below.
Request: Consider the binder VEGFBII021 (VHH, not shown: small tags and cut ends) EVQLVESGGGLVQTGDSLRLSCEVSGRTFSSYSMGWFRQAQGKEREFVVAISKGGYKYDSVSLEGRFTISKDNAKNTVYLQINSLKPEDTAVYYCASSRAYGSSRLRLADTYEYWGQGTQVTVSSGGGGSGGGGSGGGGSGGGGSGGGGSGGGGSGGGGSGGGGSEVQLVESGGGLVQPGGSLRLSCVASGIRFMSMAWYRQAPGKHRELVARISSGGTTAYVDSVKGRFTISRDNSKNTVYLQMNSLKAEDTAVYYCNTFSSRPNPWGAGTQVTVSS and give its measured HUVEC proliferation, % inhibition.
Result: 98

Data origin, for the record: patent US20200308267A1
